# Tested system: hNav1.7 and the β1 subunit (Homo sapiens, UniProt Q15858)
# Construct: expressed in transfected cells
# Sequence (Q15858 whole entry): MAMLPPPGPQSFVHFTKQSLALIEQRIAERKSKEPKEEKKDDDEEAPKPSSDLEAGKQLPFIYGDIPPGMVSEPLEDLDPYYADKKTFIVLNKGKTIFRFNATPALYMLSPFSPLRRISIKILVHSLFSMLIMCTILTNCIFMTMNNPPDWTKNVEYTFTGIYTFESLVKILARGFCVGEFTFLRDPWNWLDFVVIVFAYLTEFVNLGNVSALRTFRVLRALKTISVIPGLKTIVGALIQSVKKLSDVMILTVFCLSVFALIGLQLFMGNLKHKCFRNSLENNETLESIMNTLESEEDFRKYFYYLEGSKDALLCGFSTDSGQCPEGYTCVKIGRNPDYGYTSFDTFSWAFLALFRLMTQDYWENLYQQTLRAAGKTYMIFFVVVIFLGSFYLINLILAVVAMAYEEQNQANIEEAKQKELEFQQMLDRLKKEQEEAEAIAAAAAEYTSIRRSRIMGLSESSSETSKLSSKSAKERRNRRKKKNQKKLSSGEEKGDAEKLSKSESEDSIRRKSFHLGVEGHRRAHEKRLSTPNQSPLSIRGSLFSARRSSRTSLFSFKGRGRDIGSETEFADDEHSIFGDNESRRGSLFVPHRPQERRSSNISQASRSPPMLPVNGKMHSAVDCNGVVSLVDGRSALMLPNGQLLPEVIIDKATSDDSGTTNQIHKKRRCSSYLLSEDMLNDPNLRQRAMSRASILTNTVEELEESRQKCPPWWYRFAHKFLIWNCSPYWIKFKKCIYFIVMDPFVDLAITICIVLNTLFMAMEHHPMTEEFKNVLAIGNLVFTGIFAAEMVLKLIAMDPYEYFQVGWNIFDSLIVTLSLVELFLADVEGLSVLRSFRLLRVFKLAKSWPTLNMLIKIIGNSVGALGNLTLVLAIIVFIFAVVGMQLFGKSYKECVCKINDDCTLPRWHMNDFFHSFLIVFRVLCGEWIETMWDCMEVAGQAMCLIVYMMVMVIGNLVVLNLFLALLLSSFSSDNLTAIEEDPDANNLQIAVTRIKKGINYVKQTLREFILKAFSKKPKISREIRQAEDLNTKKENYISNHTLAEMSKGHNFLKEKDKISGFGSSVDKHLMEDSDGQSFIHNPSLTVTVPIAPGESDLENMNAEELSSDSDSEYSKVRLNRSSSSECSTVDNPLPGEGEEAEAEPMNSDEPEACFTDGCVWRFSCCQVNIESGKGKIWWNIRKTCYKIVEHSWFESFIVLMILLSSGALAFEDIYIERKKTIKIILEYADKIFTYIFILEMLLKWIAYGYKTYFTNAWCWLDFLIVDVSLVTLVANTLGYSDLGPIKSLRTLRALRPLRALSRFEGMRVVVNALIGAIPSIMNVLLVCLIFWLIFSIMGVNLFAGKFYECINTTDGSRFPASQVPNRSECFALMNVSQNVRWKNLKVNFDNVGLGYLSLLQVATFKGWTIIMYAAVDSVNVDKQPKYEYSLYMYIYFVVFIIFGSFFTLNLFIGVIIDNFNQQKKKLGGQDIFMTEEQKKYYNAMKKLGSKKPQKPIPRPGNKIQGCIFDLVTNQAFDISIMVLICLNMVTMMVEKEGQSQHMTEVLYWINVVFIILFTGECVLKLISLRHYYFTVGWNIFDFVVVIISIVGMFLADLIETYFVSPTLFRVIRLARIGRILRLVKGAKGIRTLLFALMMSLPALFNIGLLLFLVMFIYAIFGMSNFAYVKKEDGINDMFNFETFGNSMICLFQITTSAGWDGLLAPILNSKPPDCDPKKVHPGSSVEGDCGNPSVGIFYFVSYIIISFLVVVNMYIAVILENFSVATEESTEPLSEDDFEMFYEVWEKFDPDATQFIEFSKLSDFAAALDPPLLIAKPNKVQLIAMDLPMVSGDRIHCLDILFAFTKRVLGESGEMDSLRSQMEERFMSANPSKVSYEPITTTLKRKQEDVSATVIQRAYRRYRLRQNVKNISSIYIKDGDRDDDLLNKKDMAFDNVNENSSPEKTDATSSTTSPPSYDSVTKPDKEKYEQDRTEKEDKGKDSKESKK
# Sequence (Q07699 19-218 partner): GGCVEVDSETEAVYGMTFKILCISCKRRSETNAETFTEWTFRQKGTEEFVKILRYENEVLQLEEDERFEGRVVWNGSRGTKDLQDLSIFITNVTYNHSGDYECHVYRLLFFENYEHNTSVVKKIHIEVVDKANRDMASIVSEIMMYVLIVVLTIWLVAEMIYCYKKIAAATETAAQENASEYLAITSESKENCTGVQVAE
# Method summary: Tritiated compound competitive binding to membranes from cells heterologously expressing hNav1.7 and the β1 subunit (LBA)
# Protocol conditions: competition with 100 pM [3H]compound, 18 h, room temperature; IC50 by 4 parameter logistic model
# cutoff 0.01 µM applies to Nav1.7 (LBA); >= gives true (1), < gives false (0)

Compound	Category label
O=S(=O)(Nc1nccs1)c1ccc2c(c1)OCC[C@H]2N1CCCC[C@H]1c1ccccc1 (single isomer, unassigned)	true (1)
O=S(=O)(Nc1ncns1)c1ccc2c(c1)OCC[C@@H]2N1CCN(S(=O)(=O)C(F)(F)F)C[C@H]1c1ccc(F)cc1	false (0)
O=S(=O)(Nc1nccs1)c1cc2c(cc1F)[C@@H](N1CC[C@@H](C(F)(F)F)C[C@H]1c1ccc(F)c(F)c1)CCO2	false (0)
N#C[C@@H]1CCN([C@H]2CCOc3cc(S(=O)(=O)Nc4ncns4)ccc32)[C@H](c2ccc(F)cc2)C1	false (0)
CC1(C)CCN(Cc2cc(F)c(S(=O)(=O)Nc3ncns3)cc2F)[C@H](c2ccccc2)C1 (single isomer, unassigned)	true (1)
N#C[C@H]1CCN([C@H]2CCOc3cc(S(=O)(=O)Nc4ncns4)ccc32)[C@@H](c2ccc(F)cc2)C1	true (1)
O=S(=O)(Nc1ncns1)c1ccc2c(c1)OCC[C@@H]2N1CCC(F)(F)C[C@H]1c1ccc(F)cc1 (single isomer, unassigned)	false (0)
O=S(=O)(Nc1ncns1)c1ccc2c(c1)OCC[C@H]2N1CCCC[C@@H]1c1ccc(F)cc1 (single isomer, unassigned)	true (1)
O=S(=O)(Nc1nccs1)c1cc2c(cc1F)[C@H](N1CC[C@@H](C(F)(F)F)C[C@H]1c1ccn[nH]1)CCO2	true (1)
O=S(=O)(Nc1cccc(F)n1)c1ccc(CN2CCCC[C@H]2c2ccccc2)c(Cl)c1	true (1)
O=S(=O)(Nc1ncns1)c1ccc2c(c1)OCC[C@@H]2N1CC[C@@H](C(F)(F)F)C[C@H]1c1ccn[nH]1 (single isomer, unassigned)	true (1)
O=S(=O)(Nc1nncs1)c1cc2c(cc1F)[C@@H](N1CC[C@@H](C(F)(F)F)C[C@H]1c1ccc(F)cc1)CCO2	false (0)

====

# Tested system: hNav1.7 and the β1 subunit (Homo sapiens, UniProt Q15858)
# Construct: expressed in transfected cells
# Method summary: Tritiated compound competitive binding to membranes from cells heterologously expressing hNav1.7 and the β1 subunit (LBA)
# Protocol conditions: competition with 100 pM [3H]compound, 18 h, room temperature; IC50 by 4 parameter logistic model
# Method: Example 235 Tritiated Compound Binding to Membranes Isolated from Cells that Heterologously Express hNav1.7 and the β1 Subunit Preparation of membranes containing recombinantly expressed sodium channels: Frozen recombinant cell pellets were thawed on ice and diluted to 4 times the cell pellet weight with ice cold 50 mM Tris HCl, pH 7.4 buffer. […] Protein concentrations were determined by Bradford Assay and the membranes were stored at −80° C. […]
Here the recorded Nav1.7 (LBA) is given for each entry.

Compound	Tested system	Nav1.7 (LBA)
O=S(=O)(Nc1ncns1)c1ccc2c(c1)OCC[C@@H]2N1CCC(F)(F)C[C@H]1c1ccccc1 (single isomer, unassigned)	hNav1.7 and the β1 subunit (Homo sapiens, UniProt Q15858)	0.0144 µM
O=S(=O)(Nc1ncns1)c1ccc2c(c1)OCC[C@H]2N1CCCC[C@H]1c1ccc(F)cc1 (single isomer, unassigned)	hNav1.7 and the β1 subunit (Homo sapiens, UniProt Q15858)	0.198 µM
CC[C@H]1CCCCN1[C@H](C)c1ccc(S(=O)(=O)Nc2ncns2)cc1Cl (racemic)	hNav1.7 and the β1 subunit (Homo sapiens, UniProt Q15858)	5.3 µM
